Target: hTLR8 (human Toll-like receptor 8) (Homo sapiens, UniProt Q9NR97)
Sequence (Q9NR97 27-1041): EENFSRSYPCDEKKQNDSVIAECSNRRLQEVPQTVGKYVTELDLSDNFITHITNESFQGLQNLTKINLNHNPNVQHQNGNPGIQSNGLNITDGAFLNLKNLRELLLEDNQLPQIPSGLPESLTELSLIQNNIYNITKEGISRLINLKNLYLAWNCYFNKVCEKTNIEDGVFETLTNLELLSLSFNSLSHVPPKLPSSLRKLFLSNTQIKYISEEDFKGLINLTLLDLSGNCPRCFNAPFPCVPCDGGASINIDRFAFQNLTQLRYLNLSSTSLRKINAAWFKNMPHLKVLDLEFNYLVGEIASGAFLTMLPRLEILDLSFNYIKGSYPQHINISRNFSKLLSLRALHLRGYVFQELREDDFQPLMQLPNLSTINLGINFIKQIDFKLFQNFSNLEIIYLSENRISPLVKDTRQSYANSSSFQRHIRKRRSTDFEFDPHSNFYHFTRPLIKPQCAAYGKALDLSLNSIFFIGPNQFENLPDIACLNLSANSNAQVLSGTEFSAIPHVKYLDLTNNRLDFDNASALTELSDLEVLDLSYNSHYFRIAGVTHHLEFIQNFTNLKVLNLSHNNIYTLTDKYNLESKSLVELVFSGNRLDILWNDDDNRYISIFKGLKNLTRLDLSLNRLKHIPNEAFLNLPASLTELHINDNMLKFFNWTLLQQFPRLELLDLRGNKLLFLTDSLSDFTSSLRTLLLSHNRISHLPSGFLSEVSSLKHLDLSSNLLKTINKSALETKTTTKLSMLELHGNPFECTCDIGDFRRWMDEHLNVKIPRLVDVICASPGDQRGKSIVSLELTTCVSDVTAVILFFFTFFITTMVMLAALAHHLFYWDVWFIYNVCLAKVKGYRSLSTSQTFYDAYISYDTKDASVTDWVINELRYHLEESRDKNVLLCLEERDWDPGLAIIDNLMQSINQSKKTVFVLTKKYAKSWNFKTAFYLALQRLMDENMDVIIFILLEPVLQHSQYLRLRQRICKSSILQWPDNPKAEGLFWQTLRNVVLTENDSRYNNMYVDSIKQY
Test: hTLR8 cell assay (HEK-Blue hTLR8 reporter cells)
Conditions: 24 hours, OD 650 nm
RECORDED ENDPOINT: EC50

INSERT INTO assay_data (compound, value_reported) VALUES
  ('CCCCc1nc2c(N)nc3cc(Cc4ccc5c(c4)C(N)CCC5)ccc3c2n1CC(C)(C)O (stereo not drawn) [Compound 57]', '< 5 µM'),
  ('CCCCc1nc2c(N)nc3cc(Cc4ccc5c(c4)CNCC5)ccc3c2n1CC(C)(C)O [Compound 60]', '< 5 µM'),
  ('CCCC(C)c1nc2c(N)nc3cc(Cc4cccc(CCN)c4)ccc3c2n1CC(C)(C)O (stereo not drawn) [Compound 13]', '< 5 µM'),
  ('CCCCc1nc2c(N)nc3cc(Cc4cccc(CCN)c4)ccc3c2n1CC(C)(C)O [Compound 17]', '< 5 µM'),
  ('CCCCc1nc2c(N)nc3cc(Cc4ccc(CN)s4)ccc3c2n1CC(C)(C)O [Compound 69]', '< 5 µM'),
  ('CCOCc1nc2c(N)nc3cc(Cc4ccc(CN)cc4)ccc3c2n1CC(C)(C)O [Compound 1]', '> 20 µM');
